B1: CAMK2A (parent)
chain: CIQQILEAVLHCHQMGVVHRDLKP

variants of: B1; assay: protein stability index of a GFP-peptide fusion (GPS, HEK-293T) (PSI 1-6); higher = more stable; conditions: c terminus: a fixed tail appended;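 further: lentivirally expressed fusions sorted by FACS into six bins by GFP to DsRed ratio, PSI derived from sequencing read proportions per bin multiplied by bin number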
measured property: protein stability index

Query :: # input variant: "Q3F" ; wanted: its protein stability index
Result :: 2.24

Query :: Next entry: "R20T"
Result :: 3.37

Query :: Next entry: "K23D"
Result :: 3.12

Query :: Next entry: "L6D"
Result :: 2.93

Query :: Next entry: "L22G"
Result :: 2.03

Query :: Next entry: "G16V"
Result :: 1.3

Query :: Next entry: "L22I"
Result :: 3.05

Query :: Next entry: "E7D"
Result :: 3.99

Query :: Next entry: "I2K"
Result :: 1.22

Query :: Next entry: "K23L"
Result :: 2.73

Query :: Next entry: "H19S"
Result :: 2.53

Query :: Next entry: "Q14I"
Result :: 2.86

Query :: Next entry: "I2N"
Result :: 1.32

Query :: Next entry: "V17H"
Result :: 1.99

Query :: Next entry: "H11I"
Result :: 3.32

Query :: Next entry: "R20P"
Result :: 1.77

Query :: Next entry: "M15G"
Result :: 2.05

Query :: Next entry: "L22A"
Result :: 2.87

Query :: Next entry: "L6Y"
Result :: 2.13

Query :: Next entry: "Q4T"
Result :: 2.74

Query :: Next entry: "K23I"
Result :: 2.2

Query :: Next entry: "Q3H"
Result :: 3.11

Query :: Next entry: "I5N"
Result :: 1.71

Query :: Next entry: "L6R"
Result :: 1.97

Query :: Next entry: "K23E"
Result :: 2.61

Query :: Next entry: "P24Y"
Result :: 3

Query :: Next entry: "I5K"
Result :: 2.16

Query :: Next entry: "A8F"
Result :: 3.18

Query :: Next entry: "L22Y"
Result :: 1.95

Query :: Next entry: "L22T"
Result :: 3.01

Query :: Next entry: "V18D"
Result :: 2.78

Query :: Next entry: "V9R"
Result :: 2.01

Query :: Next entry: "M15D"
Result :: 1.8

# credit: the supplement of paper PMC10567573
